SYSTEM_UNDER_TEST: T1, monkey SEMA4D, full length, on CHO-K1 cells (CHO-K1 cSEMA4D) (monkey)
T1 construct: whole, on cells; also called monkey SEMA4D recombinant cells
MEASUREMENT_NOTES: FACS, CHO-K1 cSEMA4D cells; Ab 0.534 nM
OBSERVATION_TYPE: MFI

INSERT INTO assay_data (binder, observation_type, meas_value) VALUES
  ('32C8F10 (antibody, V domains shown, Mouse monoclonal antibody purified from hybridoma supernatant on protein A) VH: EVQLQQSGAELVRPGASVKLSCTASGFNIKDEYIHWVKQRPEQGLEWIGWIDPANGHTEYASRFQAKATITADTSSNTAYLQLSSLTSEDTAVYYCTTGDYDGFAYWGQGTLVTVST VL: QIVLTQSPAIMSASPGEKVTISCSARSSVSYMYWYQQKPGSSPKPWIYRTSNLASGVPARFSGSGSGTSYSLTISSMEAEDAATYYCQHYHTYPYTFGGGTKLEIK', 'MFI', 2930),
  ('37F11F9 (antibody, V domains shown, Mouse monoclonal antibody purified from hybridoma supernatant on protein A) VH: EVQLQQSGPVLVKPGASVKMSCKASGYTFTDYYMNWVKQSHGKSLEWIGLINPYSGGSTFNQKFKAKATLTVDKSSSSAYMDLNSLTSEDSAVYYCARVGDGYYGVTHGMDYWGQGTSVTVSS VL: DIVMTPSQKFMSTTVGDRVSITCKASQNVGTAVAWYQQKPGQSPTILIYSASNRYTGVPDRFTGSGSGTDFTLTISNMKSEDLADYFCQQYYIYPFTFAAGTKLELK', 'MFI', 925);

Now consider a different binder.
Task: Dear colleague, I am looking for the recorded MFI of the following binder: 31C11G2 (antibody, V domains shown, Mouse monoclonal antibody purified from hybridoma supernatant on protein A) VH: EVQLQQSGAELVRPGASVKLSCTASGFNIKDEYIHWVKQRPEQGLEWIGWIDPANGHTEYASRFQAKATITADTSSNTAYLQLSSLTSEDTAVYYCTTGDYDGFVYWGQGTLVTVST VL: QIVLTQSPAIMSASPGEKVTIFCSARSSVSYMYWYQQKPGSSPKPWIYRTSNLASGVPARFSGSGSGTSYSLTISSMEAEDAATYYCQHYHTYPYTFGGGTKLEIK
Output: 2980
